- Test system: rape
- experimental_protocol: Test B pre/postemergence rape
- Format: in vivo, Brassica napus
- experimental_parameters: Preemergence, Rate 125 g/ha; scale 0 to 10, 0 is no effect, 10 is complete control
experimental_endpoint: Rape plant response rating
Reply briefly: the number, and no unit.

>>> measurement("CC(C)N(C(=O)n1oc(=O)n(CC2CCC2)c1=O)c1ccc(F)cc1F")
0
>>> measurement("CC(C)N(C(=O)n1oc(=O)n(CC(=O)C2CC2)c1=O)c1ccccc1")
0
>>> measurement("CC(C)N(C(=O)n1oc(=O)n(CCCCF)c1=O)c1ccc(F)cc1F")
2

Item CCN(CC)C(=O)Cn1c(=O)on(C(=O)N(c2ccccc2)C(C)C)c1=O has what recorded Rape plant response rating?
0

So what's the measured Rape plant response rating for this one? COC(=O)CCCn1c(=O)on(C(=O)N(c2ccc(F)cc2F)C(C)C)c1=O
2

GET /values?readout=Rape plant response rating&item= CC(C)N(C(=O)n1oc(=O)n(COCc2ccccc2)c1=O)c1ccc(F)cc1F
0

###

- Test system: giant foxtail
- experimental_protocol: Test B pre/postemergence giant foxtail
- Type: in vivo, Setaria faberii
- experimental_parameters: Preemergence, Rate 500 g/ha; scale of 0 to 10 where 0 is no effect and 10 is complete control
Some molecules, each annotated with its measured Plant response rating, Giant foxtail.
Give the value as a plain number.

Consider the molecule C=C(Cl)Cn1c(=O)on(C(=O)N(c2ccc(F)cc2F)C(C)C)c1=O [Compound 634] and give its measured Plant response rating, Giant foxtail.
10

Fill blank: measured Plant response rating, Giant foxtail of the molecule C#CC=CC(C)(C)n1c(=O)on(C(=O)N(c2ccccc2)C(C)C)c1=O [Compound 655] is ____.
9

Recorded Plant response rating, Giant foxtail for CC(C)N(C(=O)n1oc(=O)n(CNC(=O)c2ccccc2)c1=O)c1ccccc1 [Compound 620] , please?
9

Return reported Plant response rating, Giant foxtail; argument: CCC(C)n1c(=O)on(C(=O)N(c2ccccc2)C(C)C)c1=O (stereo not shown) [Compound 610]
10

###

- Test system: wild oat
- experimental_protocol: Test B pre/postemergence wild oat
- Assay type: in vivo, Avena fatua
- experimental_parameters: Preemergence, Rate 125 g/ha
experimental_endpoint: Wild oats plant response rating (0 to 10 scale)
Respond using a number only.

The following molecules have reported results that may help.
>>> measurement("Cc1c(-n2c(=O)on(C(=O)N(c3ccccc3)C(C)C)c2=O)ccc2ccccc12")
0
>>> measurement("CC(C)N(C(=O)n1oc(=O)n(CCC#N)c1=O)c1ccc(F)cc1")
6
>>> measurement("CCCCCCn1c(=O)on(C(=O)N(c2ccc(F)cc2)C(C)C)c1=O")
0

Look up Wild oats plant response rating (0 to 10 scale): COC(Cn1c(=O)on(C(=O)N(c2ccc(F)cc2)C(C)C)c1=O)OC
8

Reported Wild oats plant response rating (0 to 10 scale) for CC1CC1n1c(=O)on(C(=O)N(c2ccc(Cl)cc2)C(C)C)c1=O (centres unmarked) : what is it?
0

###

- Test system: bedstraw
- experimental_protocol: Test B pre/postemergence bedstraw
- Type: in vivo, Galium aparine
- experimental_parameters: Preemergence, Rate 500 g/ha; scale of 0 to 10 where 0 is no effect and 10 is complete control
experimental_endpoint: Bedstraw plant response rating
Kindly provide the number alone.

Completed entries (count: 7):
>>> measurement("CCOC(=O)C(C)N(C(=O)n1oc(=O)n(-c2c(C)cccc2OC)c1=O)c1ccc(F)cc1 (centres unmarked)")
0
>>> measurement("CCC(C)n1c(=O)on(C(=O)N(c2ccccc2)C(C)C)c1=O (centres unmarked)")
10
>>> measurement("CC(C)C(C)n1c(=O)on(C(=O)N(c2ccccc2)C(C)C)c1=O (centres unmarked)")
9
>>> measurement("CC(C)N(C(=O)n1oc(=O)n(C2CCOCC2)c1=O)c1ccc(F)cc1")
10
>>> measurement("CCN(C(=O)n1oc(=O)n(C2CCCCC2)c1=O)C1CCCCC1")
0
>>> measurement("C=CCn1c(=O)on(C(=O)N(CC)C2CCCCC2)c1=O")
0
>>> measurement("CCOP(=O)(Cn1c(=O)on(C(=O)N(c2ccc(Cl)cc2)C(C)C)c1=O)OCC")
0

Proceed to the following item.
Recorded Bedstraw plant response rating for CC(C)n1c(=O)on(C(=O)N(c2ccc(Cl)cc2Cl)C2CCC2)c1=O with bedstraw, please?
7
